// data source = patent US20260130395A1

assay: Stability of cannabinoid entourage and Vitamin E components of the powder concentrate by LCMSMS; type: physicochemical; settings: powder stored at 21-25° C.; 30 days
measured-parameter: Stability of Plant-Derived Cannabinoid Compounds in Powder Concentrate (mg/g powder)
Numbers only, in mg/g powder.

CCCc1cc(O)c2c(c1)OC(C)(C)[C@@H]1CCC(C)=C[C@@H]21 [THCV, delta-9-tetrahydrocannabivarin]
0.659
C=C(C)[C@@H]1CCC(C)=C[C@H]1c1c(O)cc(CCCCC)c(C(=O)O)c1O
0.405
CCCCCc1cc(O)c2c(c1)OC(C)(CCC=C(C)C)C=C2 (stereo not shown)
0.072

Briefly, Stability of Plant-Derived Cannabinoid Compounds in Powder Concentrate measured for CCCCCc1cc(O)c2c(c1)OC1(C)CCC3C1C2C3(C)C (stereo not shown) : 0.051

* * *

experiment: Stability of cannabinoid entourage and Vitamin E components of the powder concentrate by LCMSMS; assay type: physicochemical; details: powder stored at 21-25° C.; 8 days
measured-parameter: Stability of Plant-Derived Cannabinoid Compounds in Powder Concentrate
Phrase the answer as number then unit, nothing more needed.

CCCCCc1cc(O)c(C/C=C(\C)CCC=C(C)C)c(O)c1
1.07 mg/g powder
CCCCCc1cc(O)c2c(c1)OC(C)(CCC=C(C)C)C=C2 (stereo not drawn)
0.071 mg/g powder

Briefly, Stability of Plant-Derived Cannabinoid Compounds in Powder Concentrate measured for CCCCCc1cc2c(c(O)c1C(=O)O)[C@@H]1C=C(C)CC[C@H]1C(C)(C)O2 [D9 THCA, delta-9-tetrahydrocannabinolic acid] : 0.156 mg/g powder
